Where these numbers come from: patent US8546381B2

// inhibition at 1 µM lookup, one value per entry
- tgt: human recombinant histamine H2 receptor (Homo sapiens, UniProt P25021)
- Construct: expressed in transfected cells; host or cells: CHO-K1 cells
- Sequence (P25021 whole entry): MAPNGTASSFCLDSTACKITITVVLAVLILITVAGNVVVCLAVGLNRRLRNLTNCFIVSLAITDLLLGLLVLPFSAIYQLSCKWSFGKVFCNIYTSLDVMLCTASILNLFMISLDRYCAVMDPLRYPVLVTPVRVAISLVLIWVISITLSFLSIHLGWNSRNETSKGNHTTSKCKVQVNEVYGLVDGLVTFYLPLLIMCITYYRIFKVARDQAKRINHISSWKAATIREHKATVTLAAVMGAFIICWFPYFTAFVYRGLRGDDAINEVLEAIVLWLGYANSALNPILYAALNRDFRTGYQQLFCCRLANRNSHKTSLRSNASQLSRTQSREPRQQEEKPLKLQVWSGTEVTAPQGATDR
- run.description: Histamine H2 radioligand binding ([125I]Aminopotentidine)
- study.conditions: compound at 1 μM; inhibition of specific [125I]Aminopotentidine binding; read-out: Histamine Binding (1 μM) H2, Percentage Inhibition
- Experimental: To evaluate in radioligand binding assays the activity of compounds of the invention, human recombinant histamine H2 receptor expressed in Chinese hamster ovary (CHO) K1 cells (Ruat, M., Proc. Natl. Acad. Sci. USA. 87(5):1658, 1990) in a 50 mM Phosphate buffer, pH 7.4 was used. […] Receptor proteins were filtered and washed, the filters were then counted to determine [^125I]Aminopotentidine specifically bound. […]

Worked cases, answers included:
compound	inhibition at 1 µM
COc1ccc(C(C)(O)Cn2c3c(c4cc(C)ccc42)C2CCC(C3)N2C)cc1F (stereo not drawn)	20%
CN1C2CCC1c1c(n(CCC(=O)N3CCS(=O)(=O)CC3)c3ccc(Cl)cc13)C2 (stereo not drawn)	9%
CN1C2CCC1c1c(n(C#Cc3ccc(F)cc3)c3ccc(Cl)cc13)C2 (stereo not drawn)	70%
Cc1cncc(CCn2c3c(c4cc(Cl)ccc42)C2CCC(C3)N2C)c1 (stereo not drawn)	-1%
Cc1cncc(CCn2c3c(c4cc(C)ccc42)C2CCC(C3)N2C)c1 (stereo not drawn)	-1%
Cc1ccc(C(O)Cn2c3c(c4cc(Cl)ccc42)C2CCC(C3)N2C)cn1 (stereo not drawn)	2%
CN1C2CCC1c1c(n(CCC(=O)N3CCOCC3)c3ccc(Cl)cc13)C2 (stereo not drawn)	-2%
Cc1ccc(C#Cn2c3c(c4cc(Cl)ccc42)C2CCC(C3)N2C)cn1 (stereo not drawn)	34%

Exam item: Please report the recorded inhibition at 1 µM for CN1C2CCC1c1c(n(CCCc3ccc(C(F)(F)F)nc3)c3ccc(Cl)cc13)C2 (stereo not drawn) .
Marked response: 7%

Exam item: Try C/C(=C\n1c2c(c3cc(Cl)ccc31)C1CCC(C2)N1C)c1cccnc1 (stereo not drawn) next.
Marked response: 21%

Exam item: What would you report for Cc1ccc2c(c1)c1c(n2CCc2ccccc2)CC2CCCC1N2C (stereo not drawn) ?
Marked response: 16%

Exam item: Field entry: CN1C2CCC1c1c(n(CC(=O)c3ccccc3)c3ccc(Cl)cc13)C2 (stereo not drawn)
Marked response: 27%

Exam item: Now try Cc1ccc2c(c1)c1c(n2C#Cc2ccc(F)cc2)CC2CCC1N2C (stereo not drawn) .
Marked response: 25%

Exam item: Same read-out for CN1C2CCC1c1c(n(CCCc3ccc(Cl)cc3)c3ccc(Cl)cc13)C2 (stereo not drawn) ?
Marked response: 86%

Exam item: Moving on to the next compound: Cc1ccc(CCn2c3c(c4cc(Cl)ccc42)C2CCC(C3)N2C)cn1 (stereo not drawn)
Marked response: 1%

Exam item: Same again, this time with Cc1ccc2c(c1)c1c(n2CCc2nc(-c3ccccc3)cs2)CC2CCC1N2C (stereo not drawn)
Marked response: 10%

Exam item: Another compound to check: CN1C2CCC1c1c(n(CCC(=O)N3CCNCC3)c3ccc(Cl)cc13)C2 (stereo not drawn)
Marked response: 3%

Exam item: Cc1ccc2c(c1)c1c(n2CCc2ccc(C)nc2)CC2CCC1N2C (stereo not drawn) ?
Marked response: 13%
